Target: Recombinant human cathepsin S (CatS) (Homo sapiens)
Sequence (P25774 115-331): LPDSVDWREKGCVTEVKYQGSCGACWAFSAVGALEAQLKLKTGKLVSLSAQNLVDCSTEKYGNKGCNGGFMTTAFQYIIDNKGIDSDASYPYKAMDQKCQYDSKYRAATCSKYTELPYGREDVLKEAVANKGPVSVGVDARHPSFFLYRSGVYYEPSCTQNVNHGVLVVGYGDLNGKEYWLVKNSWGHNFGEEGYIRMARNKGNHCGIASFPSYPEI
Experiment: Recombinant human cathepsin S (CatS) inhibition assay, fluorogenic substrate Z-Valine-Valine-Arginine-AMC;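 note: Baculovirus-expressed CatS in pH 5.0 sodium acetate buffer with DTT and NaCl, fluorescence read each minute over 20 min, inhibition derived from rate slope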
Conditions: CatS IC50
Please provide measured pIC50 for the entries that follow.
Answers are plain numbers, as −log10 of the molar value.

Example entries and their recorded answers appear below.
Return pIC50 (reported value) for this compound: CC(C)Oc1ccc(CNCc2ccc(C#Cc3cc(-c4nn(CCCN5CCSCC5)c5c4CN(C(N)=O)CC5)ccc3Cl)cc2)cc1 6.57

Give the reported value of pIC50 for this record: CC(C)(C)C1CCN(CCCn2nc(-c3ccc(Cl)c(C#Cc4ccc(CNCc5ccc(Cl)cc5)cc4)c3)c3c2CCN(S(C)(=O)=O)C3)CC1 7.22

Okay, now this compound:
// fetch pIC50 given entry CS(=O)(=O)N1CCc2c(c(-c3ccc(Cl)c(C#Cc4ccc(CNCc5ccc(Cl)cc5)cc4)c3)nn2CCCN2CCN(C3CC3)CC2)C1 7.22
